Data provenance: paper PMC12372887

System: pSer79-ACC1 in U2OS cells
protocolDescription: HTRF assay of Ser79-ACC1 phosphorylation in U2OS cells
Type: cell-based, human
details: Homo sapiens, U2OS, + MK-8722 (10 μM)
property: IC50 (µM)
Answers are plain numbers, in µM.

Input line: Recall the reported IC50 of `CCc1ccccc1C(=O)Nc1n[nH]c2c(C)c(F)c(C3C(C#N)=C(C)N(C)C(C)=C3C#N)cc12` on pSer79-ACC1 in U2OS cells and write it down.
Output line: 6.36

###

systemUnderTest: AMPKα2 (T172D)–α2KD (Homo sapiens, UniProt P54646, T172D)
Construct: human AMPK-α2 KD (α2KD; residues 6 to 280); made in house; host or cells: E. coli BL21(DE3)-RIL
Sequence (P54646 6-280 T172D): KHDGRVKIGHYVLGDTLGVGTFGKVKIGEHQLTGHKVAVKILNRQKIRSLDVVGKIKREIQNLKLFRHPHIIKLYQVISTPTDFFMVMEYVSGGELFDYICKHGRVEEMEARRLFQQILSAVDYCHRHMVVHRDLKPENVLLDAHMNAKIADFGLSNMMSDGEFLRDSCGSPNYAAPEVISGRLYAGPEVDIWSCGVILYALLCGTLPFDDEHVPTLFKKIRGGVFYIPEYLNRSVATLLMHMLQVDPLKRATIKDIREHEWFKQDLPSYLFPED
protocolDescription: Spectral shift (Dianthus) binding assay
details: - DTT; read-out: dissociation constant (Kd)
property: Kd (µM)
One number for each entry, in µM.

Input line: Name the recorded Kd of the item CCc1ccccc1C(=O)Nc1n[nH]c2c(C)c(F)c(C3C(C#N)=C(C)N(C)C(C)=C3C#N)cc12 [BAY-3827] in your answer.
Output line: 8.65
